# Test system: C. albicans CaCi-2 + fluconazole growth, Alamar Blue, 48 h
# ASSAY: Candida CaCi-2 inhibition under fluconazole co-treatment – CaCi-2 isolate, dry powder retest, set 2, confirmation (AID 493089)
Inconclusive results are not listed.
OBSERVATION_TYPE: AC50

Worked cases, answers included:
{"COMPOUND_SMILES": "COC(=O)Cn1nc(-c2ccc(C)cc2)c2ccccc21", "TARGET_DESC": "C. albicans CaCi-2 + fluconazole growth, Alamar Blue, 48 h", "AC50": "12000 nM"}
{"COMPOUND_SMILES": "CC1CCN(C(=O)Cn2c3ccc(F)cc3c3nc4n(c(=O)c32)CCCS4)CC1", "TARGET_DESC": "C. albicans CaCi-2 + fluconazole growth, Alamar Blue, 48 h", "AC50": "2740 nM"}
{"COMPOUND_SMILES": "O=c1c2[nH]c3ccccc3c2nc2n1CCS2", "TARGET_DESC": "C. albicans CaCi-2 + fluconazole growth, Alamar Blue, 48 h", "AC50": "10500 nM"}
{"COMPOUND_SMILES": "O=C(Cn1c2ccc(F)cc2c2nc3n(c(=O)c21)CCS3)N1CCCCCC1", "TARGET_DESC": "C. albicans CaCi-2 + fluconazole growth, Alamar Blue, 48 h", "AC50": "1490 nM"}
{"COMPOUND_SMILES": "O=c1c2[nH]c3ccc(F)cc3c2nc2n1CCS2", "TARGET_DESC": "C. albicans CaCi-2 + fluconazole growth, Alamar Blue, 48 h", "AC50": "3410 nM"}

From here, focus on the item given below.
Prompt: I'd like to know its AC50. The molecule in question is O=C(Cn1c2ccc(F)cc2c2nc3n(c(=O)c21)CCS3)N1CCCCC1
Response: 628 nM

* * *

# Test system: C. albicans CaCi-2 (fluconazole-resistant clinical isolate) + fluconazole growth, Alamar Blue, 48 h
# ASSAY: Candida CaCi-2 inhibition under fluconazole co-treatment – CaCi-2 isolate, dry powder retest, set 2, confirmation (AID 493089)
Inconclusive results are not listed.
OBSERVATION_TYPE: AC50

{"COMPOUND_SMILES": "O=C(Cn1c2ccccc2c2nc3n(c(=O)c21)CCS3)N1CCCCC1", "AC50": "2.15 µM"}
{"COMPOUND_SMILES": "CCN(CC)C(=O)Cn1c2ccc(F)cc2c2nc3n(c(=O)c21)CCS3", "AC50": "0.645 µM"}
{"COMPOUND_SMILES": "O=C(Cn1c2ccc(F)cc2c2nc3n(c(=O)c21)CCS3)N1CCCC1", "AC50": "0.583 µM"}
{"COMPOUND_SMILES": "O=C(Cn1c2ccccc2c2nc3n(c(=O)c21)CCS3)N1CCOCC1", "AC50": "3.57 µM"}
{"COMPOUND_SMILES": "CC1CCN(C(=O)Cn2c3ccccc3c3nc4n(c(=O)c32)CCS4)CC1", "AC50": "5.13 µM"}
{"COMPOUND_SMILES": "COc1ccc(NC(=O)Cn2c3ccccc3c3nc4n(c(=O)c32)CCS4)cc1", "AC50": "3.02 µM"}

From here, focus on the item given below.
Prompt: I'd like to know its AC50. The compound in question is COC(=O)Cn1nc(-c2ccccc2)c2ccccc21
Response: 2.89 µM
